Record form. Attribute: IC50. Fill in for each entry.
tested_on: T1, Human eIF4E (aa 28-217) with a C-terminal His tag (human, UniProt P06730 28-217)
T1 construct: also called HH-eIF4E; eukaryotic initiation factor 4E
assay_comment: TR-FRET competition vs biotin-4G2 peptide on HH-eIF4E;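 also: peptide inhibitors measured in sodium phosphate buffer at pH 6.5 containing KCl, DTT, NP40 and gammaglobulin, with a 20 min incubation at room temperature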
Square brackets hold non-standard residues; d marks the D form. Nle = CCCC[C@H](N)C(=O)O; Nva = CCC[C@H](N)C(=O)O
Response body: numeric value in µM, unit text excluded.

Notebook: Ac-KRYDREFLLAFQF[Nle]-NH2 (SMILES CCCC[C@H](NC(=O)[C@H](Cc1ccccc1)NC(=O)[C@H](CCC(N)=O)NC(=O)[C@H](Cc1ccccc1)NC(=O)[C@H](C)NC(=O)[C@H](CC(C)C)NC(=O)[C@H](CC(C)C)NC(=O)[C@H](Cc1ccccc1)NC(=O)[C@H](CCC(=O)O)NC(=O)[C@H](CCCNC(=N)N)NC(=O)[C@H](CC(=O)O)NC(=O)[C@H](Cc1ccc(O)cc1)NC(=O)[C@H](CCCNC(=N)N)NC(=O)[C@H](CCCCN)NC(C)=O)C(N)=O) [peptide of SEQ ID NO: 80] , IC50 read as 0.643

Notebook: Ac-Y[Nva]LLAFQF[Nle]-NH2 (SMILES CCCC[C@H](NC(=O)[C@H](Cc1ccccc1)NC(=O)[C@H](CCC(N)=O)NC(=O)[C@H](Cc1ccccc1)NC(=O)[C@H](C)NC(=O)[C@H](CC(C)C)NC(=O)[C@H](CC(C)C)NC(=O)[C@H](CCC)NC(=O)[C@H](Cc1ccc(O)cc1)NC(C)=O)C(N)=O) [peptide of SEQ ID NO: 78] , IC50 read as 6.63

Notebook: Ac-AQYDREFLLDFQFMPA-NH2 [peptide of SEQ ID NO: 63] , IC50 read as 12.3

Notebook: Ac-KQYDREFLLDF-NH2 [peptide of SEQ ID NO: 56] , IC50 read as 3.44

Notebook: Ac-KQYDREFLLDFQFM[dP]A-NH2 [peptide of SEQ ID NO: 65] , IC50 read as 7.69

Notebook: Ac-YNREFLLDFQF[Nle]-NH2 (SMILES CCCC[C@H](NC(=O)[C@H](Cc1ccccc1)NC(=O)[C@H](CCC(N)=O)NC(=O)[C@H](Cc1ccccc1)NC(=O)[C@H](CC(=O)O)NC(=O)[C@H](CC(C)C)NC(=O)[C@H](CC(C)C)NC(=O)[C@H](Cc1ccccc1)NC(=O)[C@H](CCC(=O)O)NC(=O)[C@H](CCCNC(=N)N)NC(=O)[C@H](CC(N)=O)NC(=O)[C@H](Cc1ccc(O)cc1)NC(C)=O)C(N)=O) [peptide of SEQ ID NO: 74] , IC50 read as 10.9

Notebook: Ac-KQYDREFLLDFQF[dM]PA-NH2 [peptide of SEQ ID NO: 66] , IC50 read as 7.75

Notebook: Ac-KQYDREFLLDFQ[dF]MPA-NH2 [peptide of SEQ ID NO: 67] , IC50 read as 13.7
